Where do the numbers come from? From ChEMBL document CHEMBL1127872.

Species on record: Oryctolagus cuniculus
Method: Potency of the Angiotensin II-induced contraction of rabbit aortic strips
Assay type: functional, Aorta
Cond: Oryctolagus cuniculus, Aorta; read-out: pA2 (converted)
Given measured Kb, output 1.0 if it is greater than or equal to 8 nM and 0.0 if not.

In plain terms: is recorded Kb at least 8 nM for `Cc1ccnc2c1nc(C1CCC1)n2Cc1ccc(-c2ccccc2C(=O)O)cc1` ?
0.0

In plain terms: is recorded Kb at least 8 nM for `Cc1ccnc2c1nc(CCCO)n2Cc1ccc(-c2ccccc2C(=O)O)cc1` ?
1.0

In plain terms: is recorded Kb at least 8 nM for `Cc1ccnc2c1nc(C1CC1)n2Cc1ccc(-c2ccccc2C(=O)O)cc1` ?
0.0

In plain terms: is recorded Kb at least 8 nM for `CCCCc1nc2ccccc2n1Cc1cc(Cl)c(O)c(Cl)c1` ?
1.0

In plain terms: is recorded Kb at least 8 nM for `CSc1nc2c(C)ccnc2n1Cc1ccc(-c2ccccc2C(=O)O)cc1` ?
1.0

====

I'd appreciate it if you could supply ED2 values for the items below.
Test system: Angiotensin II receptor (Rattus norvegicus) (UniProt P29089+P25095+P35351)
Method: In vivo antagonism of Angiotensin II induced dose-pressor response in male rats.
Assay type: functional, organism-based
Provide the measurement as a number trailed by its unit.

Entry under review: CCCCc1nc(Cl)c(CO)n1Cc1ccc(-c2ccccc2-c2nnn[nH]2)cc1 [LOSARTAN] . Reported ED2?
0.28 mg/kg

Entry under review: `CCCCc1nc2c(C)ccnc2n1Cc1cc(Cl)c(O)c(Cl)c1` . Reported ED2?
0.55 mg/kg

Entry under review: `CSc1nc2c(C)ccnc2n1Cc1ccc(-c2ccccc2C(=O)O)cc1` . Reported ED2?
0.97 mg/kg

Entry under review: `CCc1nc2c(C)ccnc2n1Cc1ccc(-c2ccccc2C(=O)O)cc1` . Reported ED2?
0.29 mg/kg

Entry under review: `CCCCc1nc2c(C)cccc2n1Cc1cc(Cl)c(O)c(Cl)c1` . Reported ED2?
1.3 mg/kg

Entry under review: `CCCc1nc2c(C)ccnc2n1Cc1ccc(-c2ccccc2C(=O)O)cc1` . Reported ED2?
0.16 mg/kg

Entry under review: `CCCCc1nc2c(C)ccnc2n1Cc1ccc(-c2ccccc2C(=O)O)cc1` . Reported ED2?
0.45 mg/kg

Entry under review: `CCCCc1nc2cccnc2n1Cc1cc(Cl)c(O)c(Cl)c1` . Reported ED2?
1.9 mg/kg

Entry under review: `CCCc1nc2c(Cl)ccnc2n1Cc1ccc(-c2ccccc2C(=O)O)cc1` . Reported ED2?
0.66 mg/kg

Entry under review: `Cc1ccnc2c1nc(C1CC1)n2Cc1cc(Cl)c(O)c(Cl)c1` . Reported ED2?
0.079 mg/kg

Entry under review: `Oc1c(Cl)cc(Cn2c(C3CC3)nc3cccnc32)cc1Cl` . Reported ED2?
0.48 mg/kg

Entry under review: `CCSc1nc2c(C)ccnc2n1Cc1ccc(-c2ccccc2C(=O)O)cc1` . Reported ED2?
0.41 mg/kg

Entry under review: `CCCCc1nc2ccccc2n1Cc1cc(Cl)c(O)c(Cl)c1` . Reported ED2?
6.5 mg/kg

Entry under review: `CCCc1nc2cccnc2n1Cc1cc(Cl)c(O)c(Cl)c1` . Reported ED2?
0.65 mg/kg

Entry under review: `Cc1ccnc2c1nc(C)n2Cc1ccc(-c2ccccc2C(=O)O)cc1` . Reported ED2?
1.3 mg/kg

Entry under review: `COCc1nc2c(C)ccnc2n1Cc1ccc(-c2ccccc2C(=O)O)cc1` . Reported ED2?
0.65 mg/kg

Entry under review: `Cc1ccnc2c1nc(C1CC1)n2Cc1ccc(-c2ccccc2C(=O)O)cc1` . Reported ED2?
0.075 mg/kg

Entry under review: `CCCc1nc2c(C)ccnc2n1Cc1cc(Cl)c(O)c(Cl)c1` . Reported ED2?
0.15 mg/kg

Entry under review: `C/C=C/c1nc2c(C)ccnc2n1Cc1ccc(-c2ccccc2C(=O)O)cc1` . Reported ED2?
0.35 mg/kg

Entry under review: `Cc1ccnc2c1nc(C1CCC1)n2Cc1ccc(-c2ccccc2C(=O)O)cc1` . Reported ED2?
0.25 mg/kg

Entry under review: `Cc1ccnc2c1nc(C(C)C)n2Cc1ccc(-c2ccccc2C(=O)O)cc1` . Reported ED2?
0.84 mg/kg

====

I'd appreciate it if you could supply pIC50 values for the items below.
Test system: Type-1 angiotensin II receptor (Bos taurus, UniProt P25104)
Sequence (P25104 whole entry): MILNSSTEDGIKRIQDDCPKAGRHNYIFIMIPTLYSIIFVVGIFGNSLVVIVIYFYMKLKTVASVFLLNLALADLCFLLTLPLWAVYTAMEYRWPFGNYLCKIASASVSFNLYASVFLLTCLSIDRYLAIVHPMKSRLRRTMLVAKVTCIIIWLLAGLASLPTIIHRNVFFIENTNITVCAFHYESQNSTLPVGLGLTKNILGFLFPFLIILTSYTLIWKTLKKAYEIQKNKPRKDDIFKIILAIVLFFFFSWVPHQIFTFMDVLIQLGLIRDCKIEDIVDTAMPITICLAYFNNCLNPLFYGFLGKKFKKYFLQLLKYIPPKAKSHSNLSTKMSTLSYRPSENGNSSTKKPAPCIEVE
Reminder that pIC50 means the negative base-10 logarithm of the concentration expressed in mol/L.

Entry under review: `CCCCc1nc2ccccc2n1Cc1cc(Br)c(O)c(Br)c1` . Reported pIC50?
5.60

Entry under review: `CCCCc1nc2ccccc2n1Cc1cc(C)c(O)c(C)c1` . Reported pIC50?
5.33

Entry under review: `CCCCc1nc2ccccc2n1Cc1cc(C)c(O)c(I)c1` . Reported pIC50?
5.66

====

Organism: Oryctolagus cuniculus
Method: Potency of the Angiotensin II-induced contraction of rabbit aortic strips
Assay type: functional, Aorta
Cond: Oryctolagus cuniculus, Aorta; read-out: pA2 (converted)
Readout type: Kb (nM)
Express your answer in nM, writing the number without its unit.

Entry under review: `CCCc1nc2c(Cl)ccnc2n1Cc1ccc(-c2ccccc2C(=O)O)cc1` . Reported Kb?
7.94

Entry under review: `Oc1c(Cl)cc(Cn2c(C3CC3)nc3cccnc32)cc1Cl` . Reported Kb?
20

Entry under review: `CCSc1nc2c(C)ccnc2n1Cc1ccc(-c2ccccc2C(=O)O)cc1` . Reported Kb?
5.01

Entry under review: `O=C(O)c1ccccc1-c1ccc(Cn2c(C3CC3)nc3c(C(=O)O)ccnc32)cc1` . Reported Kb?
25.1

====

Species: Oryctolagus cuniculus
Method: Potency of the Angiotensin II-induced contraction of rabbit aortic strips
Assay type: functional, Aorta
Cond: Oryctolagus cuniculus, Aorta; read-out: pA2 (converted)
Readout type: Kb (nM)
Express your answer in nM, writing the number without its unit.

Entry under review: `CCCCc1nc2ncccc2n1Cc1cc(Cl)c(O)c(Cl)c1` . Reported Kb?
398

Entry under review: `COCc1nc2c(C)ccnc2n1Cc1ccc(-c2ccccc2C(=O)O)cc1` . Reported Kb?
79.4

Entry under review: `CCCCc1nc2cccnc2n1Cc1cc(Cl)c(O)c(Cl)c1` . Reported Kb?
63.1

Entry under review: `Cc1ccnc2c1nc(C(C)C)n2Cc1ccc(-c2ccccc2C(=O)O)cc1` . Reported Kb?
31.6

Entry under review: `CCCCc1nc2c(C)cccc2n1Cc1cc(Cl)c(O)c(Cl)c1` . Reported Kb?
20

Entry under review: `CCCc1nc2c(C)ccnc2n1Cc1ccc(-c2ccccc2C(=O)O)cc1` . Reported Kb?
3.16

====

Species on record: Oryctolagus cuniculus
Method: Potency of the Angiotensin II-induced contraction of rabbit aortic strips
Assay type: functional, Aorta
Cond: Oryctolagus cuniculus, Aorta; read-out: pA2 (converted)
I'd appreciate it if you could supply Kb values for the items below.
Express your answer in nM, writing the number without its unit.

Entry under review: `Cc1ccnc2c1nc(C)n2Cc1ccc(-c2ccccc2C(=O)O)cc1` . Reported Kb?
50.1

Entry under review: `O=C(O)c1ccccc1-c1ccc(Cn2c(C3CC3)nc3c(CO)ccnc32)cc1` . Reported Kb?
10

Entry under review: `Oc1c(Cl)cc(Cn2c(C3CC3)nc3ncccc32)cc1Cl` . Reported Kb?
631

Entry under review: `C/C=C/c1nc2c(C)ccnc2n1Cc1ccc(-c2ccccc2C(=O)O)cc1` . Reported Kb?
5.01

Entry under review: `CCCc1nc2cccnc2n1Cc1cc(Cl)c(O)c(Cl)c1` . Reported Kb?
31.6

Entry under review: CCCCc1nc(Cl)c(CO)n1Cc1ccc(-c2ccccc2-c2nnn[nH]2)cc1 [LOSARTAN] . Reported Kb?
2.51

====

Species: Oryctolagus cuniculus
Method: Potency of the Angiotensin II-induced contraction of rabbit aortic strips
Format: functional, Aorta
Cond: Oryctolagus cuniculus, Aorta; read-out: pA2 (converted)
Simple rule here: Kb less than 10 nM is 1 (yes), otherwise 0 (no).

Hi there! Is Kb for `CCCc1nc2cccnc2n1Cc1ccc(-c2ccccc2C(=O)O)cc1` below 10 nM, do you know?
0 (no)

Hi there! Is Kb for `CCCc1nc2c(C)ccnc2n1Cc1cc(Cl)c(O)c(Cl)c1` below 10 nM, do you know?
1 (yes)

Hi there! Is Kb for `Cc1ccnc2c1nc(C1CC1)n2Cc1cc(Cl)c(O)c(Cl)c1` below 10 nM, do you know?
1 (yes)

Hi there! Is Kb for `CCCc1nc2ncccc2n1Cc1cc(Cl)c(O)c(Cl)c1` below 10 nM, do you know?
0 (no)

Hi there! Is Kb for `CCc1nc2c(C)ccnc2n1Cc1ccc(-c2ccccc2C(=O)O)cc1` below 10 nM, do you know?
1 (yes)
